species on record: Homo sapiens; test: Selectivity ratio of EC50 for human oxytocin receptor to EC50 for human vasopressin V1a receptor
Bridge positions count the residues as written; N and C are the ends. Square brackets hold non-standard residues; d marks the D form. Peptide text beside a SMILES is read from it. Ala(2-furyl) = N[C@@H](Cc1ccco1)C(=O)O; Orn = NCCC[C@H](N)C(=O)O; Dab = NCC[C@H](N)C(=O)O
quantity name: Ratio EC50

compound	Ratio EC50
CC[C@H](C)[C@@H]1NC(=O)[C@H](Cc2ccccc2)NC(=O)[C@@H](N)CSSC[C@@H](C(=O)N2CCC[C@H]2C(=O)N[C@@H](CCCN)C(=O)NCC(N)=O)NC(=O)[C@H](CC(N)=O)NC(=O)[C@H](CCC(=O)NC)NC1=O (H-CFIE(NHMe)NCP[Orn]G-NH2; disulfide 1-6)	> 1600
CC[C@H](C)[C@@H]1NC(=O)[C@H](Cc2ccco2)NC(=O)[C@@H](N)CSSC[C@@H](C(=O)N2CCC[C@H]2C(=O)N[C@@H](CCN)C(=O)NCC(N)=O)NC(=O)[C@H](CC(N)=O)NC(=O)[C@H](CC(N)=O)NC1=O (H-C[Ala(2-furyl)]INNCP[Dab]G-NH2; disulfide 1-6)	55

The record that follows has no Ratio EC50 shown yet.
Query: Dear colleague, I am looking for the recorded Ratio EC50 of the following compound: CC[C@H](C)[C@@H]1NC(=O)[C@H](Cc2ccccc2)NC(=O)[C@@H](N)CSSC[C@@H](C(=O)N2CCC[C@H]2C(=O)N[C@@H](CCCN)C(=O)NCC(N)=O)NC(=O)[C@H](CC(N)=O)NC(=O)[C@H](CC(=O)NC)NC1=O (H-CFID(NHMe)NCP[Orn]G-NH2; disulfide 1-6)
Reply: > 2700

---

biological target: Oxytocin receptor (Homo sapiens) (UniProt P30559); assay: Partial agonist activity at human OT receptor expressed in CHO-K1 cells by luciferase reporter gene assay; assay type: functional, cell-based
Numbered stars: 1 amine (or outer) side, 2 acyl side, 3 side chain; on linkers, the order of the positions; unused ones are H or OH. Bridge positions count the residues as written; N and C are the ends. Square brackets hold non-standard residues; d marks the D form. Peptide text beside a SMILES is read from it. Orn(Me) = CN(CCC[C@H](N[*:1])C(=O)[*:2])[*:3]; Orn(iPr) = CC(C)NCCC[C@H](N)C(=O)O
quantity name: Efficacy

compound	Efficacy
CC[C@H](C)[C@@H]1NC(=O)[C@H](Cc2ccccc2)NC(=O)[C@@H](N)CSSC[C@@H](C(=O)N2CCC[C@H]2C(=O)N[C@@H](CCCNC(C)C)C(=O)NCC(N)=O)NC(=O)[C@H](CC(N)=O)NC(=O)[C@H](CC(N)=O)NC1=O (H-CFINNCP[Orn(iPr)]G-NH2; disulfide 1-6)	< 70%

Pending compound:
Query: What value of Efficacy on Oxytocin receptor (Homo sapiens) (UniProt P30559) does CC[C@H](C)[C@@H]1NC(=O)[C@H](Cc2ccccc2)NC(=O)[C@@H](N)CSSC[C@@H](C(=O)N2CCC[C@H]2C(=O)N[C@@H](CCCNC)C(=O)NCC(N)=O)NC(=O)[C@H](CC(N)=O)NC(=O)[C@H](CCC(N)=O)NC1=O (H-CFIQNCP[Orn(Me)]G-NH2; disulfide 1-6) have?
Reply: < 70%

---

molecular target: Vasopressin V1a/V2 (Homo sapiens) (UniProt P30518+P37288); assay: Selectivity ratio of EC50 for human vasopressin V2 receptor to EC50 for human vasopressin V1a receptor
Sequence (P30518 whole entry, looked up): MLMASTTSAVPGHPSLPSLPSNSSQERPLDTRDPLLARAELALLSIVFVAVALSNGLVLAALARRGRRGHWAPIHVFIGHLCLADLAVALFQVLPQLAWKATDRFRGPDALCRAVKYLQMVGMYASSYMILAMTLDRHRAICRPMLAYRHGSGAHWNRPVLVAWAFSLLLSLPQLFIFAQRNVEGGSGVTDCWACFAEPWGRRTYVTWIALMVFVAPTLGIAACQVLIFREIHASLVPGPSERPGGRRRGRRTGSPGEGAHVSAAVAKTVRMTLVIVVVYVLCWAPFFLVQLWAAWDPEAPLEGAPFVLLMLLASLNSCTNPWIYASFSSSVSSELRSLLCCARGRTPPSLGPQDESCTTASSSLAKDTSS
Sequence (P37288 whole entry, looked up): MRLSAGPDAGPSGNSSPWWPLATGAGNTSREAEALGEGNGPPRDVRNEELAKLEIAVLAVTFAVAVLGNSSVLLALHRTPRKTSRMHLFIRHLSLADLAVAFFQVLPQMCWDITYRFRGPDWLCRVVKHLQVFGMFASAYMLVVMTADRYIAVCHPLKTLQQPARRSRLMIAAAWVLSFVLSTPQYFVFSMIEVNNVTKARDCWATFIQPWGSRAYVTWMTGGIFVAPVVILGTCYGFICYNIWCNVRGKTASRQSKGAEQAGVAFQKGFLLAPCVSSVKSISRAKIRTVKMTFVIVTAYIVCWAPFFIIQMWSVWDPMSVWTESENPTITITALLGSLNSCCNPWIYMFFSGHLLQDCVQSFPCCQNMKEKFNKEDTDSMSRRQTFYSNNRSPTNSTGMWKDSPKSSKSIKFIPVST
Numbered stars: 1 amine (or outer) side, 2 acyl side, 3 side chain; on linkers, the order of the positions; unused ones are H or OH. Bridge positions count the residues as written; N and C are the ends. Square brackets hold non-standard residues; d marks the D form. Peptide text beside a SMILES is read from it. * marks the point of attachment. Orn(Me) = CN(CCC[C@H](N[*:1])C(=O)[*:2])[*:3]; Ala(4-thiazolyl) = N[C@@H](Cc1cscn1)C(=O)O; Ala(2-furyl) = N[C@@H](Cc1ccco1)C(=O)O; Orn(iPr) = CC(C)NCCC[C@H](N)C(=O)O; 3Pal = N[C@@H](Cc1cccnc1)C(=O)O; 3Thi = N[C@@H](Cc1ccsc1)C(=O)O; Orn = NCCC[C@H](N)C(=O)O; Dab = NCC[C@H](N)C(=O)O; X3 = OCCOCCN*
quantity name: Ratio EC50

compound	Ratio EC50
CC[C@H](C)[C@@H]1NC(=O)[C@H](Cc2cscn2)NC(=O)[C@@H](N)CSSC[C@@H](C(=O)N2CCC[C@H]2C(=O)N[C@@H](CCN)C(=O)NCC(N)=O)NC(=O)[C@H](CC(N)=O)NC(=O)[C@H](CCC(N)=O)NC1=O (H-C[Ala(4-thiazolyl)]IQNCP[Dab]G-NH2; disulfide 1-6)	130
CC[C@H](C)[C@@H]1NC(=O)[C@H](Cc2cccnc2)NC(=O)[C@@H](N)CSSC[C@@H](C(=O)N2CCC[C@H]2C(=O)N[C@@H](CCN)C(=O)NCC(N)=O)NC(=O)[C@H](CC(N)=O)NC(=O)[C@H](CCC(N)=O)NC1=O (H-C[3Pal]IQNCP[Dab]G-NH2; disulfide 1-6)	> 330
CC[C@H](C)[C@@H]1NC(=O)[C@H](Cc2ccsc2)NC(=O)[C@@H](N)CSSC[C@@H](C(=O)N2CCC[C@H]2C(=O)N[C@@H](CCN)C(=O)NCC(N)=O)NC(=O)[C@H](CC(N)=O)NC(=O)[C@H](CC(N)=O)NC1=O (H-C[3Thi]INNCP[Dab]G-NH2; disulfide 1-6)	> 1300
CC[C@H](C)[C@@H]1NC(=O)[C@H](Cc2ccco2)NC(=O)[C@@H](N)CSSC[C@@H](C(=O)N2CCC[C@H]2C(=O)N[C@@H](CCCNC(C)C)C(=O)NCC(N)=O)NC(=O)[C@H](CC(N)=O)NC(=O)[C@H](CC(N)=O)NC1=O (H-C[Ala(2-furyl)]INNCP[Orn(iPr)]G-NH2; disulfide 1-6)	> 660
CC[C@H](C)[C@@H]1NC(=O)[C@H](Cc2ccccc2)NC(=O)[C@@H](N)CSSC[C@@H](C(=O)N2CCC[C@H]2C(=O)N[C@@H](CCCN)C(=O)NCC(N)=O)NC(=O)[C@H](CC(N)=O)NC(=O)[C@H](CC(=O)NCCOCCO)NC1=O (H-CFID(X3)NCP[Orn]G-NH2; disulfide 1-6)	> 2000
CC[C@H](C)[C@@H]1NC(=O)[C@H](Cc2ccccc2)NC(=O)[C@@H](N)CSSC[C@@H](C(=O)N2CCC[C@H]2C(=O)N[C@@H](CCCNC)C(=O)NCC(N)=O)NC(=O)[C@H](CC(N)=O)NC(=O)[C@H](CC(N)=O)NC1=O (H-CFINNCP[Orn(Me)]G-NH2; disulfide 1-6)	> 4100

# ---- query compound ----
Query: Entry CC[C@H](C)[C@@H]1NC(=O)[C@H](Cc2ccccc2)NC(=O)[C@@H](N)CSSC[C@@H](C(=O)N2CCC[C@H]2C(=O)N[C@@H](CCCNC(C)C)C(=O)NCC(N)=O)NC(=O)[C@H](CC(N)=O)NC(=O)[C@H](CC(N)=O)NC1=O (H-CFINNCP[Orn(iPr)]G-NH2; disulfide 1-6) , system Vasopressin V1a/V2 (Homo sapiens) (UniProt P30518+P37288): what Ratio EC50 was measured?
Reply: 2600

---

Biological target: Oxytocin receptor (Homo sapiens)
Sequence (P30559 whole entry): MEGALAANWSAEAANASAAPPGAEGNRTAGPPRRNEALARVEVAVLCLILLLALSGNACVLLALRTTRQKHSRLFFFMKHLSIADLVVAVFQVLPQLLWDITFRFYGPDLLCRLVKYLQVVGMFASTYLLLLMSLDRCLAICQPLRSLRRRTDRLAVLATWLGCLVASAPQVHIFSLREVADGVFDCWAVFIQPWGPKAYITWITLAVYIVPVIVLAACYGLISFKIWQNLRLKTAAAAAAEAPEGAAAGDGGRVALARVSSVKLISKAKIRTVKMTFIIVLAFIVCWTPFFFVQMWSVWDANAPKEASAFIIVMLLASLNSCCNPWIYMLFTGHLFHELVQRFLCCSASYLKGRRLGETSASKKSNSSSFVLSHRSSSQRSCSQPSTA
Assay: Agonist activity at human OT receptor expressed in CHO-K1 cells by luciferase reporter gene assay
Assay type: functional, cell-based
Details: cho-k1; read-out: EC50
Bridge positions count the residues as written; N and C are the ends. Square brackets hold non-standard residues; d marks the D form. Peptide text beside a SMILES is read from it. * marks the point of attachment. Ala(2-furyl) = N[C@@H](Cc1ccco1)C(=O)O; Orn = NCCC[C@H](N)C(=O)O; Dab = NCC[C@H](N)C(=O)O; X3 = OCCOCCN*
quantity name: EC50

compound	tested target	EC50
CCNC(=O)C[C@@H]1NC(=O)[C@H]([C@@H](C)CC)NC(=O)[C@H](Cc2ccccc2)NC(=O)[C@@H](N)CSSC[C@@H](C(=O)N2CCC[C@H]2C(=O)N[C@@H](CCCN)C(=O)NCC(N)=O)NC(=O)[C@H](CC(N)=O)NC1=O (H-CFID(NHEt)NCP[Orn]G-NH2; disulfide 1-6)	Oxytocin receptor (Homo sapiens)	> 10 µM
CC[C@H](C)[C@@H]1NC(=O)[C@H](Cc2ccco2)NC(=O)[C@@H](N)CSSC[C@@H](C(=O)N2CCC[C@H]2C(=O)N[C@@H](CCCN)C(=O)NCC(N)=O)NC(=O)[C@H](CC(N)=O)NC(=O)[C@H](CC(N)=O)NC1=O (H-C[Ala(2-furyl)]INNCP[Orn]G-NH2; disulfide 1-6)	Oxytocin receptor (Homo sapiens)	> 10 µM
CCNC(=O)C[C@@H]1NC(=O)[C@H]([C@@H](C)CC)NC(=O)[C@H](Cc2ccccc2)NC(=O)[C@@H](N)CSSC[C@@H](C(=O)N2CCC[C@H]2C(=O)N[C@@H](CCN)C(=O)NCC(N)=O)NC(=O)[C@H](CC(N)=O)NC1=O (H-CFID(NHEt)NCP[Dab]G-NH2; disulfide 1-6)	Oxytocin receptor (Homo sapiens)	> 10 µM

Proceed to the following item.
Query: EC50; subject: CC[C@H](C)[C@@H]1NC(=O)[C@H](Cc2ccccc2)NC(=O)[C@@H](N)CSSC[C@@H](C(=O)N2CCC[C@H]2C(=O)N[C@@H](CCCN)C(=O)NCC(N)=O)NC(=O)[C@H](CC(N)=O)NC(=O)[C@H](CC(=O)NCCOCCO)NC1=O (H-CFID(X3)NCP[Orn]G-NH2; disulfide 1-6)
Reply: > 10 µM
